B1: USP39 (parent)
chain: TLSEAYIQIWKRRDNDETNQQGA

Variants of: B1
Test: protein stability index of a GFP-peptide fusion (GPS, HEK-293T) (PSI 1-6); higher = more stable;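 also: lentivirally expressed fusions sorted by FACS into six bins by GFP to DsRed ratio, PSI derived from sequencing read proportions per bin multiplied by bin number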
Conditions: c terminus: native
Reported protein stability index is given for each of the following variants.
Would you mind answering with just the numeric figure?

Short answer for TLSEAYIQIWKRRDNDETNFQGA [Q20F] : protein stability index was 2.02

Reported protein stability index of TLSNAYIQIWKRRDNDETNQQGA [E4N] : 2.05

The measured protein stability index associated with TLSEAYIQIWKHRDNDETNQQGA [R12H] reads 1.96

Given item TLSEAYIQIWKRRDNDETNLQGA [Q20L] , the value recorded as its protein stability index is 2.02

protein stability index reported for this variant TLSEAYIQIWKRRMNDETNQQGA [D14M] : 2.01

protein stability index for TLSEAYIQIWKRKDNDETNQQGA [R13K] is 2.05

So for TLSEAYIQIWKRVDNDETNQQGA [R13V] , the logged protein stability index turned out to be 1.97

Looking up TLSEAYICIWKRRDNDETNQQGA [Q8C] , I found its protein stability index recorded as 1.95
